- target.system: human FXR (Homo sapiens)
- Sequence (Q96RI1 262-486 limits assumed): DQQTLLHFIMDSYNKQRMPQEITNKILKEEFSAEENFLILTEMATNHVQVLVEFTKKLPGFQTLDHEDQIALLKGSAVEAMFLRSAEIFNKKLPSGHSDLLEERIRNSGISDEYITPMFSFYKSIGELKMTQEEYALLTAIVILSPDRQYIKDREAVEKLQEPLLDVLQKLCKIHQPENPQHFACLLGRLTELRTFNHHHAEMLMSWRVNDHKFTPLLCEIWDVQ
- procedure.summary: transient human FXR/Gal4-luciferase reporter assay
- condition.notes: Gal4-hFXR transfected HEK293 reporter cells; relative to 8 μM GW-4064
pEC50: −log10 of the molar value.
Measured pEC50 by item
measurement.label: pEC50

1) O=C(O)c1cc2ccc(N3CCC4(C=C(c5c(-c6c(F)cccc6Cl)noc5C5CC5)C4)CC3)cc2nn1 | 6.71
2) O=C(O)c1cc(OC(F)F)c2cc(N3CCC4(C=C(c5c(-c6ccncc6Cl)noc5C5CC5)C4)CC3)ccc2n1 | 7.42
3) CCNC(=O)c1cc(F)c2nc(N3CCC4(C=C(c5c(-c6c(Cl)cncc6Cl)noc5C5CC5)C4)CC3)sc2c1 | 7.17
4) Cn1nc(N2CCC3(C=C(c4c(-c5ccccc5C(F)(F)F)noc4C4CC4)C3)CC2)c2ccc(C(=O)O)cc21 | 5.48
5) Cn1cc(C(=O)O)c2ccc(N3CCC4(CC3)CC(c3c(C(F)F)cnn3-c3ccccc3C(F)(F)F)C4)cc21 | 6.56
6) CCOc1cc(C(=O)O)nc2ccc(N3CCC4(C=C(c5c(-c6ccccc6OC(F)(F)F)noc5C5CC5)C4)CC3)cc12 | 6.94
7) O=C(O)c1cc(C(F)(F)F)c2cc(N3CCC4(C=C(c5c(-c6ccc(F)cc6Cl)noc5C5CC5)C4)CC3)ccc2n1 | 6.06
8) O=C(O)c1ccc2nc(N3CCC4(C=C(c5c(-c6c(Cl)cccc6Cl)noc5C5CC5)C4)CC3)sc2c1 | 7.77
9) CS(=O)(=O)NC(=O)c1cc(OC(F)F)c2cc(N3CCC4(C=C(c5c(-c6ccccc6C(F)(F)F)noc5C5CC5)C4)CC3)ccc2n1 | 7.89
10) Cn1cc(C(=O)O)c2cnc(N3CCC4(C=C(c5c(-c6c(Cl)cccc6Cl)noc5C5CC5)C4)CC3)cc21 | 6.86
11) O=C(O)c1ccc2cc(N3CCC4(C=C(c5c(-c6ncccc6Cl)noc5C5CC5)C4)CC3)ccc2n1 | 5.79
12) CS(=O)(=O)NC(=O)c1ccc2cc(N3CCC4(C=C(c5c(-c6c(Cl)cccc6Cl)noc5C5CC5)C4)CC3)ccc2n1 | 6.59
13) O=C(O)c1cc(C(F)(F)F)c2cc(N3CCC4(C=C(c5c(-c6c(F)cncc6F)noc5C5CC5)C4)CC3)ccc2n1 | 6.29
14) O=C(O)c1cc(C(F)(F)F)c2cc(N3CCC4(C=C(c5c(-c6c(Cl)cccc6Cl)noc5C5CC5)C4)CC3)ccc2n1 | 7.42

Ref: patent US11078198B2
